- Measured Target: Runt-related transcription factor 1 (Homo sapiens) + Core-binding factor subunit beta (Homo sapiens) (UniProt Q01196+Q13951)
- Sequence (Q01196 whole entry, looked up): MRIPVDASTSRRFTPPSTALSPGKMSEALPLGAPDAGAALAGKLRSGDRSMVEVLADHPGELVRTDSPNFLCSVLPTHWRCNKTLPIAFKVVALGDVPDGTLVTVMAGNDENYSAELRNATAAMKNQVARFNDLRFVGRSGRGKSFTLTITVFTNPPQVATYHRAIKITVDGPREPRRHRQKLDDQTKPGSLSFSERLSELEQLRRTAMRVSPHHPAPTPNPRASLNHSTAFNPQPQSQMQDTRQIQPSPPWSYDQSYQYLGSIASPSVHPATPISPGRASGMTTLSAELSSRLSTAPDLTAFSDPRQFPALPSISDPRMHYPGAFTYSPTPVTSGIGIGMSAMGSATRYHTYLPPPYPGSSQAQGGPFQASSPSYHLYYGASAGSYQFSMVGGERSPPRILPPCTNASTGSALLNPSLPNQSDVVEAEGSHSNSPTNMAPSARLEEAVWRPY
- Sequence (Q13951 whole entry, looked up): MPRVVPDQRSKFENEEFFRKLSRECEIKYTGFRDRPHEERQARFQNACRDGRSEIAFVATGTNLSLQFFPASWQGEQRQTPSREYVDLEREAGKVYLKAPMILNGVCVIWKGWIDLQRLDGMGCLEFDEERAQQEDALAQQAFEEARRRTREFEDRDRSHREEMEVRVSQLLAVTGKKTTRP
- Assay Overview: qHTS Assay for Compounds Blocking the Interaction Between CBF-beta and RUNX1 for the Treatment of Acute Myeloid Leukemia: Hit Validation; further: nearly all actives have a fitted effect of over 60% in size; further: potency means the concentration at half of the fitted maximal effect
- Test Settings: AlphaScreen CBFb-His/RUNX1-biotin binding; series mostly up to 59.8 µM
Hit rate of the full screen: of about 1,500 compounds, about 100 (6.7%) were called active. Inconclusive results (about 7%) are left out. This excerpt belongs to a sample that is enriched for actives.
Measurement Name: Potency

>>> print(df.to_string())
                                    compound  measurement_name   endpoint_result
 0        COc1ccc(Oc2ccc(-c3ccn[nH]3)cc2)cc1           Potency          inactive
 1  CC(C)CC1C2C(=O)N(c3ccccc3)C(=O)C2ON1c1ccccc1 (stereo not drawn)           Potency          inactive
 2  CC1CC(=O)Nc2ccccc2N1S(=O)(=O)c1ccc(Cl)cc1 (stereo not drawn)           Potency          inactive
 3  Cc1ccnn1CC(=O)N/N=C/c1cn[nH]c1-c1ccc(F)cc1           Potency          inactive
 4  O=C(CN1CCN(C(c2ccccc2)c2ccccc2)CC1)N1N=CCC1c1ccccc1 (stereo not drawn)           Potency          inactive
 5         O=C(CN1CCCc2ccccc21)N1CCc2ccccc21           Potency          inactive
 6     COc1ccc(/C=N/NC(=O)c2cnccn2)c(OC)c1OC           Potency          inactive
 7                     CC(C)c1nc(C#N)c(NN)o1           Potency          inactive
 8     O=C(O)c1ccccc1N/N=C/c1cc(Br)cc(Br)c1O           Potency          inactive
 9    COc1ccccc1NC(=O)Nc1sccc1-c1nc2ccccc2s1           Potency          inactive
10  O=[N+]([O-])c1ccc(O)c(/C=N/NC2=NS(=O)(=O)c3ccccc32)c1           Potency  2.82 µM (active)
11                         O=c1[nH]cc(I)cc1I           Potency  17.3 µM (active)
12   Cc1nn2c(NCCOCCO)c3c(nc2c1-c1ccccc1)CCC3           Potency          inactive
13  CC(=O)Nc1ccc(OCCOc2ccc([N+](=O)[O-])cc2)cc1           Potency          inactive
14        Cc1cc2nc3ccc(=[N+](C)C)cc-3sc2cc1N           Potency  6.31 µM (active)
15      CNC(=O)Nc1cc(NC(=O)NC)cc(C(F)(F)F)c1           Potency          inactive
16    O=C(NN1C(=O)CSC1=S)C(=O)NN1C(=O)CSC1=S           Potency  8.91 µM (active)
17         CCOC(=O)N1CCC(NC(=O)CCCC(=O)O)CC1           Potency          inactive
